System: OM-10.1 cells
test: inhibition of HIV-1 activation / HIV expression in chronically infected OM-10.1 cells (TNF-α induced)
Type: cell-based, human immunodeficiency virus type 1 (HIV-1)
assay_conditions: Human immunodeficiency virus 1
metric: pIC50
When answering, recall that pIC50 equals minus log10 of the concentration in mol/L, and write that number alone.

Inquiry: Recorded pIC50 for `COc1ccc2sc3c(c2c1)SCCNC3=O` with OM-10.1 cells, please?
Reply text: 6.68

---

Tested on: Vero cells
assay_conditions: monkey, 120 h
metric: CC50 (µM)
Write the value in µM as a bare number.

Inquiry: Which CC50 is reported for this molecule? `COc1ccc2sc3c(c2c1)SCCNC3=O`
Reply text: 60
